The entries below come with measured EC50 values attached.
Target: human GLP-1R (Homo sapiens, UniProt P43220)
Sequence (P43220 24-463): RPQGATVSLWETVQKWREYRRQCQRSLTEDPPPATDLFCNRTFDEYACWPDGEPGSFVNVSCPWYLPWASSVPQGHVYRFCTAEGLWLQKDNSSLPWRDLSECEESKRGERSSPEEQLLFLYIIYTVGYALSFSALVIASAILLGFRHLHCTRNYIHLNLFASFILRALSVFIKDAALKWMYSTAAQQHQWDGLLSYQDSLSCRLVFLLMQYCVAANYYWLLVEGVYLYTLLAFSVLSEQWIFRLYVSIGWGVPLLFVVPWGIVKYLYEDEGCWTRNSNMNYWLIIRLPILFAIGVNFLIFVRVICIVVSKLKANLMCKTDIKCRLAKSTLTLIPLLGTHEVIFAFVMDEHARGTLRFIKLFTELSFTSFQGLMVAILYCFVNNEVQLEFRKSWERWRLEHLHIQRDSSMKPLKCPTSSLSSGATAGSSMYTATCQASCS
Test: Human GLP-1 Receptor HEK293 cell cAMP assay, 104 fmol/mg GLP-1R expression density
Format: cell-based
Parameters: expressed in transfected cells; host or cells: HEK293 clonal cell line
Details: HEK293 cell line with 104 fmol/mg expression density of GLP-1R; geometric mean; read-out: EC50 nM (SEM, n), intracellular cAMP response, relative EC50

>  <SMILES_INPUT>
N#Cc1ccc2c(c1)OCCc1cc(c(F)cc1Cc1nc3ccc(C(=O)O)cc3n1C[C@@H]1CCO1)-c1cccc(n1)OC2

>  <TARGET>
human GLP-1R (Homo sapiens, UniProt P43220)

>  <EC50, nM>
539

$$$$
>  <SMILES_INPUT>
COCCOc1cc(C(=O)O)cc2c1nc(Cc1cc(F)c3cc1CCOCc1cc(ccc1C#N)COc1cccc-3n1)n2C[C@@H]1CCO1

>  <TARGET>
human GLP-1R (Homo sapiens, UniProt P43220)

>  <EC50, nM>
31.5

$$$$
>  <SMILES_INPUT>
COCCOc1cc(C(=O)O)cc2c1nc(Cc1ccc3cc1OCCCc1cc(C#N)ccc1COc1cccc-3n1)n2C[C@@H]1CCO1

>  <TARGET>
human GLP-1R (Homo sapiens, UniProt P43220)

>  <EC50, nM>
6.6

$$$$
